- PROTOCOL_SUMMARY: in vivo
- TEST_CONDITIONS: SD, rat, iv, 1 mg/kg

COMPOUND | AUC(0-t)
Cn1ccc2c(NC3C4CCC(CC4)C3C(=O)O)nc(-c3c[nH]c4ncncc34)nc21 (racemic) | 4280 ng·h/mL
O=C(O)C1C2CCC(CC2)C1Nc1cc(-c2ccco2)nc(-c2c[nH]c3ncncc23)n1 (racemic) | 3190 ng·h/mL

---

// reported AUC(0-inf) for each item listed
- PROTOCOL_SUMMARY: in vivo
- TEST_CONDITIONS: SD, rat, iv, 1 mg/kg

MOLECULE | AUC(0-inf)
O=C(O)C1C2CCC(CC2)C1Nc1cc(-c2ccco2)nc(-c2c[nH]c3ncncc23)n1 (racemic) [Example 2] | 4020 ng·h/mL
Cn1ccc2c(NC3C4CCC(CC4)C3C(=O)O)nc(-c3c[nH]c4ncncc34)nc21 (racemic) [Example 3] | 4320 ng·h/mL

---

// reported clearance for each item listed
- PROTOCOL_SUMMARY: in vivo
- TEST_CONDITIONS: SD, rat, iv, 1 mg/kg
ATTRIBUTE_MEASURED: clearance (mL/min/kg)

MOLECULE | ATTRIBUTE_MEASURED | RESULT_NUMBER
Cn1ccc2c(NC3C4CCC(CC4)C3C(=O)O)nc(-c3c[nH]c4ncncc34)nc21 (racemic) | clearance | 9.8
O=C(O)C1C2CCC(CC2)C1Nc1cc(-c2ccco2)nc(-c2c[nH]c3ncncc23)n1 (racemic) | clearance | 10.7

---

- PROTOCOL_SUMMARY: in vivo
- TEST_CONDITIONS: SD, rat, po, 5 mg/kg

MOLECULE | UNITS | AUC(0-inf)
Cn1ccc2c(NC3C4CCC(CC4)C3C(=O)O)nc(-c3c[nH]c4ncncc34)nc21 (racemic) | ng·h/mL | 15700
O=C(O)C1C2CCC(CC2)C1Nc1cc(-c2ccco2)nc(-c2c[nH]c3ncncc23)n1 (racemic) | ng·h/mL | 12900
